Biological target: delF508-CFTR (Homo sapiens, UniProt P13569, DEL508-508)
Construct: functional activity of the CFTR channel (Chloride ion transport) in patient derived primary human bronchial epithelial cells
Assay: Measurement of delF508-CFTR functional activity in primary human bronchial epithelial cells (HBECs) using Multi-Transepithelial Clamp Circuit (MTECC-24) assay
Settings: primary CF HBECs; test compound added 24h before assay, in the presence of potentiator; mean of at least two replicates; read-out: MTECC24 CFHBEC- EC50
Where a name gives a salt, the structure may show the parent alone.
Measured log10 EC50 by item
Friendly reminder: values = log10 of EC50, unit nM.

Example entries and their recorded answers appear below.
[[record]]
compound = "CC1(C(=O)O)CCN(c2cccc(S(=O)(=O)Nc3ccc(C(F)(F)F)c(-c4ccccc4N4CCOCC4)n3)n2)CC1 [Example 343]"
value_reported = 1.94

[[record]]
compound = "Cc1cccc(C)c1-c1nc(NS(=O)(=O)c2cccc(N3CCNCC3)n2)ccc1Cl [Example 163, Hydrochloride]"
value_reported = 1.77


(Q) Look up and state reported log10 EC50 for Cc1ccccc1-c1nc(NS(=O)(=O)c2cccc(N3CC(O)(C(F)(F)F)C3)n2)ccc1C(F)(F)F [Example 204]
(A) 0.76

(Q) Look up and state reported log10 EC50 for Cc1ccccc1-c1nc(NS(=O)(=O)c2cccc(N3CCC[C@H](C(=O)O)C3)n2)ccc1C(F)(F)F [Example 333]
(A) 0.90

---

Measured EC50 by item
Target: horseradish peroxidase (HRP) tagged delF508-CFTR (Homo sapiens, UniProt P13569, DEL508-508)
Construct: expressed in transfected cells
Sequence (P13569 with tags, fused parts or gaps DEL508-508): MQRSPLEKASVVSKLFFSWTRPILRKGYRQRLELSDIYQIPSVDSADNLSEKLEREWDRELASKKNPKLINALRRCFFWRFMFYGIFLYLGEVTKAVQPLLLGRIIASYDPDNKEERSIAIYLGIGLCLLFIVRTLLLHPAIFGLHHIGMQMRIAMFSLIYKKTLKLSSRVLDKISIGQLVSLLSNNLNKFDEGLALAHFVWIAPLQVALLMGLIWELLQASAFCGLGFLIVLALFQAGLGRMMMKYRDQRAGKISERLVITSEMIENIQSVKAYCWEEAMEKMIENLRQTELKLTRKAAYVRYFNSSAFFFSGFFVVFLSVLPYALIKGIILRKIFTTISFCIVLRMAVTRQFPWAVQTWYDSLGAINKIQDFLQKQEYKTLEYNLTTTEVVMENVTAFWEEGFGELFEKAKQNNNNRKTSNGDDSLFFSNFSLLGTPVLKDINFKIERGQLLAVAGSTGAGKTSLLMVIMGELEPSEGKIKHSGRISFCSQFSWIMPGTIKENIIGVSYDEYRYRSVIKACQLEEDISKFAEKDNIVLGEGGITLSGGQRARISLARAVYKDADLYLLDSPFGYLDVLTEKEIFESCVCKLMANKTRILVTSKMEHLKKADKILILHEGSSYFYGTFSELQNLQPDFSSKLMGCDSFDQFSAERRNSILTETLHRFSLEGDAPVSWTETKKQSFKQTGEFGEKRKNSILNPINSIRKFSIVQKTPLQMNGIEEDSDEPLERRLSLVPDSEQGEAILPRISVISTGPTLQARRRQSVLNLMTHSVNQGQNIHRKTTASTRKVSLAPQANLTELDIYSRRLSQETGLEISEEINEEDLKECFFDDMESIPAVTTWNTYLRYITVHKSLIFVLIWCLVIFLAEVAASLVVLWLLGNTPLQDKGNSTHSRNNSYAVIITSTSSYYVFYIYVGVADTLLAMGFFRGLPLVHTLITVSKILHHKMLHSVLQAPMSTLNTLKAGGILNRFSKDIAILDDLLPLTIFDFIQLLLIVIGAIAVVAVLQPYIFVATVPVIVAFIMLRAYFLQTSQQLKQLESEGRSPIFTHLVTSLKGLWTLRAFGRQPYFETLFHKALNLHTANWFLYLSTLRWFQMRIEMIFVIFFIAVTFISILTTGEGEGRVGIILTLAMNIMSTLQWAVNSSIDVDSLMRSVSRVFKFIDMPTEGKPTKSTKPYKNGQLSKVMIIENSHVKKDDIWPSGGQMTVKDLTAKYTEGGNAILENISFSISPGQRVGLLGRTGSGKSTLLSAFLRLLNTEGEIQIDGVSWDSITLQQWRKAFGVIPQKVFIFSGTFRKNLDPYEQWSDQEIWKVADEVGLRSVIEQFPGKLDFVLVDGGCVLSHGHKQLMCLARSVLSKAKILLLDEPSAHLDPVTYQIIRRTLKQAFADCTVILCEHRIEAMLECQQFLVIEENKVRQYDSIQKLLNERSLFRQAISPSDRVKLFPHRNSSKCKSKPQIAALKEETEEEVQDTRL
Experiment: Measurement of delF508-CFTR-HRP surface expression in CFBE41o- cells
Format: cell-based
Details: CFBE41o- cells; mean of at least two replicates; read-out: DelF508-CFTR-HRP EC50

Example entries and their recorded answers appear below.
[[record]]
compound = "CCCc1ccccc1-c1nc(NS(=O)(=O)c2cccc(N3CCC[C@@](C)(C(=O)O)C3)n2)ccc1C(F)(F)F [Example 423]"
metric = "EC50"
value_reported = "757 nM"

[[record]]
compound = "Cc1ccccc1-c1nc(NS(=O)(=O)c2cccc(N[C@@H]3CCC[C@@H](C(=O)O)C3)n2)ccc1C(F)(F)F (relative stereo) [Example 463]"
metric = "EC50"
value_reported = "2950 nM"

[[record]]
compound = "CCCC1(C(=O)O)CCCN(c2cccc(S(=O)(=O)Nc3ccc(Cl)c(-c4c(C)cccc4C)n3)n2)C1 (stereo not shown) [Example 457]"
metric = "EC50"
value_reported = "622 nM"


Turning now to a further compound:
(Q) Look up and state reported EC50 for C[C@@]1(C(=O)O)CCCN(c2cccc(S(=O)(=O)Nc3ccc(Cl)c(-c4ccccc4C4CC4)n3)n2)C1 [Example 437]
(A) 1560 nM

---

Target: horseradish peroxidase (HRP) tagged delF508-CFTR (Homo sapiens, UniProt P13569, DEL508-508)
Construct: expressed in transfected cells
Assay: Measurement of delF508-CFTR-HRP surface expression in CFBE41o- cells;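 for DelF508-CFTR-HRP Amax %: percent efficacy relative to reference corrector lumacaftor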
Assay type: cell-based
Details: delF508-CFTR-HRP surface expression, CFBE41o- cells; read-out: DelF508-CFTR-HRP Amax %
Structures can show the parent of a compound that is named as a salt.
Binary call on Emax with cut-off 500%: strictly below means 1, and equality or higher means 0.

Here's what some known entries look like.
[[record]]
compound = "Cc1ccccc1-c1nc(NS(=O)(=O)c2cccc(N3CCN4C[C@@H](F)C[C@H]4C3)n2)ccc1C(F)(F)F"
assigned_class = 0

[[record]]
compound = "Cc1ccccc1-c1nc(NS(=O)(=O)c2cccc(N3CCN(C(=O)OC(C)(C)C)[C@@H](CO)C3)n2)ccc1C(F)(F)F"
assigned_class = 0

[[record]]
compound = "Cc1cc(NS(=O)(=O)c2cccc(N)n2)nc(-c2c(C)cccc2C)c1"
assigned_class = 1

[[record]]
compound = "Cc1ccc(F)cc1-c1nc(NS(=O)(=O)c2ccnc(N3CC(O)C3)c2)ccc1C(F)(F)F"
assigned_class = 1


Continue with the compound presented below.
(Q) Below 500% on Emax? Entry Cc1ccccc1-c1nc(NS(=O)(=O)c2cccc(N3C[C@@H]4C[C@H]3CN4)n2)ccc1C(F)(F)F [Example 203, hydrochloride]
(A) 1
